Consider the following compounds and their measured TGI readings.
test system: SNB-19 CNS; assay: NCI tumour cell line growth inhibition, 48 h
measurement_label: TGI

INSERT INTO measurements (compound, measurement_label, reported_result) VALUES
  ('CCCCc1[nH]ccc2c(C)c3nc4ccccc4c3cc12', 'TGI', '11.6 µM'),
  ('C=CCSSC1N=CNc2nc[nH]c21 (stereo not given)', 'TGI', '> 100 µM'),
  ('COC(=O)Cc1c([C@H]2[C@H](CC(=O)OC)c3ccccc3N2C(=O)C(F)(F)F)[nH]c2ccccc12', 'TGI', '> 100 µM'),
  ('CCOP(=O)(OCC)OC1c2[nH]ccc2-c2cc(C(=O)OC)[nH]c2C1OC (stereo not given)', 'TGI', '> 100 µM'),
  ('CC(=O)Oc1cc2oc(=O)cc(C)c2cc1OC(C)=O', 'TGI', '> 100 µM'),
  ('CCOC(=O)Cc1cc(=O)oc2cc(O)ccc12', 'TGI', '> 100 µM'),
  ('COc1cc(C2C(C(=O)O)=C(CO)Oc3cc4c(cc32)OCO4)cc(OC)c1OC (stereo not given)', 'TGI', '> 100 µM'),
  ('CCc1nc(N)nc(N)c1-c1ccc2c(c1)nnn2CCc1ccccc1', 'TGI', '86.4 µM'),
  ('CC(=O)Oc1ccc(/C=C/C(=O)NCC(NC(=O)/C=C/c2ccc(OC(C)=O)c(OC(C)=O)c2)C(=O)O)cc1OC(C)=O (stereo not given)', 'TGI', '> 100 µM'),
  ('O=C(CSc1nnc(Cc2ccccc2)o1)Nc1ccc(Cl)cc1Cl', 'TGI', '> 100 µM');

###

Consider the following compounds and their measured TGI readings.
tested on: SF-539 CNS; assay: NCI tumour cell line growth inhibition, 48 h
Where a SMILES comes first, the peptide text is derived from it. [ ]: non-standard residue; d: D form. The star is where a group is joined. Nle = CCCC[C@H](N)C(=O)O; Cbz = O=C(OCc1ccccc1)*
measurement_label: TGI

INSERT INTO measurements (compound, reported_result) VALUES
  ('Cc1nc2nn[nH]n2c(=O)c1CCO', '> 100 µM'),
  ('C[Si](C)(C)/N=C1\N2C(=NC1(C(F)(F)F)C(F)(F)F)Sc1ccccc12', '> 50 µM'),
  ('O=C(Nc1ccc(OCc2nnc(-c3ccc(Cl)cc3)o2)c(F)c1)Nc1ccc(Cl)c(Cl)c1', '27.7 µM'),
  ('Cc1ccc(N=Nc2c(-c3ccccc3)nn(C(=O)CC(=O)Nc3ccc(Cl)cc3)c2-c2ccccc2)cc1', '> 100 µM'),
  ('COCP1(=S)OC(C)CCN1C(C)C (stereo unspecified)', '> 100 µM'),
  ('CC(C)(C)N1C(=O)N=[N+](/C(=C(\c2ccccc2)n2nc([O-])n(C(C)(C)C)c2=O)c2ccccc2)C1=O', '> 100 µM'),
  ('COc1ccc(/C(COc2ccc3c(c2)oc(=O)c2cc(OC)ccc23)=N/O)cc1', '51.3 µM'),
  ('c1ccc(N2CCN(CN3CCN(c4ccccc4)C3)C2)cc1', '> 100 µM'),
  ('COC(=O)/C(=C(\C)NC(C)=O)c1c(C(=O)OC)[nH]c2ccccc12', '> 100 µM'),
  ('CCCC[C@@H](C=O)NC(=O)[C@H](CC(C)C)NC(=O)[C@H](CC(C)C)NC(=O)OCc1ccccc1 (Cbz-Leu-Leu-[Nle]-aldehyde)', '2.53 µM'),
  ('Cc1cc2nc3c4cc(C=O)ccc4n(CCN(C)C)c3nc2cc1C', '3.87 µM'),
  ('O=C1C=C(Nc2ccccc2C(=O)c2ccccc2)c2ccccc2C1=O', '> 100 µM'),
  ('COC(=O)c1cc(CC2Cc3cc4c(cc3C2)CCC4)cc2c1CCC2', '> 100 µM'),
  ('O=C(/C=C/c1cccc2ccccc12)c1ccccc1', '15.6 µM'),
  ('CC1=C(/C=C/C(C)=C/C=C/C(C)=C/C=C/C=C(C)/C=C/C=C(C)/C=C/C=C(C)/C=C/C=C(\C)C(=O)O)C(C)(C)CCC1', '> 100 µM'),
  ('Cc1c2ccccc2c(C)n2c1nc1cc3ccccc3cc12', '2.86 µM'),
  ('COC12COC(=O)C1C(c1ccc3c(c1)OCO3)c1cc3c(cc1O2)OCO3 (stereo unspecified)', '43.8 µM'),
  ('CSC(N)=Nc1cccc2ccccc12', '> 10 µM'),
  ('COC(=O)C1=C(OC(=O)/C(=C/c2ccccc2)c2ccccc2)C(C(=O)OC)[C@@]2(O)[C@@H](C(=O)OC)[C@H](C)C[C@@H]1[C@@H]2C(=O)OC (stereo partly specified)', '> 100 µM'),
  ('C/C=C1/C[C@@H](C)[C@@](C)(O)C(=O)OCC2=CC[N+]3([O-])CC[C@@H](OC1=O)[C@@H]23 (stereo partly specified)', '> 100 µM'),
  ('COc1ccccc1N1CCN(CC(O)COc2c(Br)c(Br)c(Br)c3c2OC(C)(C)C3)CC1 (stereo unspecified)', '32.1 µM'),
  ('Clc1ccc(-c2noc(CN3CCCCC3)n2)cc1', '> 100 µM'),
  ('COC(=O)C(=Cc1ccccc1[N+](=O)[O-])C(=O)OC', '7.5 µM'),
  ('CCOC(=O)N1CCN(c2ccc3ccc(N)nc3n2)CC1', '> 100 µM'),
  ('COc1ccc(C(O)c2cc3c(N)c(C(=O)Nc4ccc(Br)cc4)sc3nc2C)cc1 (stereo unspecified)', '4.98 µM'),
  ('CC#CC#Cc1cccc(=O)o1', '26.6 µM'),
  ('C[C@]12CC[C@H](O)CC1=CC[C@@H]1C2CC[C@]2(C)NC(=O)C(C#N)CC12 (stereo partly specified)', '> 100 µM'),
  ('Cc1ccc2ccc(O)cc2c1', '> 100 µM'),
  ('COC(=O)Cc1c([C@H]2[C@H](CC(=O)OC)c3ccccc3N2C(=O)C(F)(F)F)[nH]c2ccccc12', '> 100 µM'),
  ('O=c1c(Br)c(-c2ccccc2)[nH]c2ccccc12', '> 100 µM'),
  ('CC(=O)OC1(C)C(=O)OC/C2=C/CN(C)CCC(OC(=O)C(O)(C(C)Cl)CC1C)C2=O (stereo unspecified)', '> 100 µM'),
  ('CC1OC2=N[C@@H]1C(=O)N[C@@H](Cc1ccccc1)C1=N[C@H](C(=O)N[C@@H](Cc3ccccc3)C3=N[C@H](C(=O)N[C@H]2Cc2ccccc2)C(C)O3)C(C)O1 (stereo partly specified)', '47.4 µM'),
  ('OC1(c2ccccc2)CSc2ncnn21 (stereo unspecified)', '> 100 µM'),
  ('NC(C(=O)O)c1cc(=O)[nH]o1 (stereo unspecified)', '> 100 µM'),
  ('NC1CCCCC1N.O=NN1CCCCCC1(P(=O)([O-])[O-])P(=O)([O-])[O-].[Na+].[Pt+2]', '> 100 µM'),
  ('N#CC(C#N)=C(C(C#N)C#N)C(C#N)C#N', '> 100 µM'),
  ('COc1cc(/C=C2\N=C(c3ccccc3)N(c3cc4cc(Sc5ccccc5)ccc4[nH]3)C2=O)cc(OC)c1OC', '24.6 µM'),
  ('COc1ccc2c3ccc4c(c3n(C)c2c1)C(=O)C=CC4=O', '52.8 µM'),
  ('CC/C(=C(\c1ccc(Cl)cc1)c1ccc(OCCN2CCCCC2)cc1)c1ccc(O)cc1', '3.11 µM'),
  ('CCc1nc(N)nc(N)c1-c1ccc2c(c1)nnn2CCc1ccccc1', '> 68.9 µM'),
  ('O=C1Cc2ccccc2N1/N=C\c1ccc([N+](=O)[O-])cc1', '> 100 µM');

###

tested on: K-562 leukemia; assay: NCI tumour cell line growth inhibition, 48 h
measurement_label: TGI

INSERT INTO results (compound, target_or_system, measurement_label, reported_result) VALUES
  ('COc1ccc(CN=C2N/C(=C\c3ccccc3Cl)C(=O)N2C)cc1', 'K-562 leukemia', 'TGI', '> 100 µM'),
  ('CCc1nc(N)nc(N)c1-c1ccc2c(c1)nnn2CCc1ccccc1', 'K-562 leukemia', 'TGI', '> 51.1 µM'),
  ('COc1cc2c(cc1OC)C1c3ccccc3CCCN1CC2 (configuration not stated)', 'K-562 leukemia', 'TGI', '> 100 µM'),
  ('CC(C)(C)OCC1NC(=O)[C@@H]2Cc3c([nH]c4ccccc34)C(C3CCCCC3)N2C1=O (some centres not stated)', 'K-562 leukemia', 'TGI', '61.6 µM'),
  ('COc1ccccc1NCc1nnc(CCCCCCCCc2nnc(CNc3ccccc3OC)o2)o1', 'K-562 leukemia', 'TGI', '> 100 µM'),
  ('CC(=O)OC1(C)C(=O)OC/C2=C/CN(C)CCC(OC(=O)C(O)(C(C)Cl)CC1C)C2=O (configuration not stated)', 'K-562 leukemia', 'TGI', '> 100 µM'),
  ('COCP1(=S)OC(C)CCN1C(C)C (configuration not stated)', 'K-562 leukemia', 'TGI', '> 100 µM'),
  ('N#CC1=C(Cl)NC(Cl)=C(C#N)C1c1ccc(Cl)cc1', 'K-562 leukemia', 'TGI', '28.5 µM'),
  ('COc1ccc(C(O)c2cc3c(N)c(C(=O)Nc4ccc(Br)cc4)sc3nc2C)cc1 (configuration not stated)', 'K-562 leukemia', 'TGI', '> 100 µM'),
  ('C=C1C(=O)[C@@]23CC[C@@H]4[C@@]5(C)CCC[C@@]4(OC5=O)C2(C)CC[C@]1(OC)C3 (some centres not stated)', 'K-562 leukemia', 'TGI', '1.24 µM'),
  ('O=C(O)c1ccc(C=C2Sc3ccccc3S2)cc1', 'K-562 leukemia', 'TGI', '> 100 µM'),
  ('O=c1[nH]cnc2[nH]cc(CN3CCCCC3)c12', 'K-562 leukemia', 'TGI', '> 100 µM'),
  ('CC(=O)c1ccc(NC(=O)/C(CC(=O)/C=C/c2ccccc2)=N/NC(N)=S)cc1', 'K-562 leukemia', 'TGI', '> 100 µM'),
  ('COc1cc(C2C(C(=O)O)=C(CO)Oc3cc4c(cc32)OCO4)cc(OC)c1OC (configuration not stated)', 'K-562 leukemia', 'TGI', '> 100 µM'),
  ('Cc1cc(C23OC4COC(C)(C)OC4C2OC(C)(C)O3)nc2ccccc12 (configuration not stated)', 'K-562 leukemia', 'TGI', '> 100 µM'),
  ('COC12COC(=O)C1C(c1ccc3c(c1)OCO3)c1cc3c(cc1O2)OCO3 (configuration not stated)', 'K-562 leukemia', 'TGI', '40.2 µM'),
  ('COC(=O)C1SC(N(C)c2ccccc2)=NC12c1ccccc1Nc1ccccc12 (configuration not stated)', 'K-562 leukemia', 'TGI', '47.7 µM'),
  ('COc1ccc(/C=C/C(=O)c2ccc(NC(=O)CSc3nnc(-c4ccc(OC)c(OC)c4)n3-c3ccccc3)cc2)cc1', 'K-562 leukemia', 'TGI', '10.8 µM'),
  ('CCOC(=O)C1=NC(c2ccccc2)(c2ccccc2)OC1=C(Cl)Cl', 'K-562 leukemia', 'TGI', '> 100 µM'),
  ('NC(=Nc1ccc(Cl)cc1)c1ccccc1N', 'K-562 leukemia', 'TGI', '> 100 µM'),
  ('O=S(CCc1ccccc1)Nc1ccccc1 (configuration not stated)', 'K-562 leukemia', 'TGI', '> 100 µM'),
  ('O/N=C(\C(=N/O)Nc1ccc(-c2ccc(NC(=N/O)/C(=N\O)c3ccccc3)cc2)cc1)c1ccccc1', 'K-562 leukemia', 'TGI', '44 µM');
